# assayTarget: CYP3A4 (Homo sapiens (Human))
# Sequence (P08684 whole entry): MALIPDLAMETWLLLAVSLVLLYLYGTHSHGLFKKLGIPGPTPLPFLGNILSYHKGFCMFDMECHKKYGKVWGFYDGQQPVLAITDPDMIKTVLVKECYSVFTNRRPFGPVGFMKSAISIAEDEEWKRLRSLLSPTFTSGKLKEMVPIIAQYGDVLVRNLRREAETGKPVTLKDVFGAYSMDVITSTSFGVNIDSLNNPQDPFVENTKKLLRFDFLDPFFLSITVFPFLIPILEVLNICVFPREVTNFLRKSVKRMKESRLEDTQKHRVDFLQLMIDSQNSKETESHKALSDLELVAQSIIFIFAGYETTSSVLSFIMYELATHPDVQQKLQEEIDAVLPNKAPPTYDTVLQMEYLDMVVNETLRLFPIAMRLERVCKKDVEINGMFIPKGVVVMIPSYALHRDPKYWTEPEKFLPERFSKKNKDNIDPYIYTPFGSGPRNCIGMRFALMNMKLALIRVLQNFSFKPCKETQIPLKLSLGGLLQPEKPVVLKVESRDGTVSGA
# procedureDetails: Assessment of MBI and enzyme inactivation clearance against CYP3A4 (human liver microsomes, midazolam or testosterone as substrate)
# Type: in vitro ADME
# recordedConditions: probe midazolam or testosterone; CYP3A4, human liver microsomes; CLint = kinact/KI x CYP contents
measuredProperty: microsomal CLint (µL/min/mg)
Return type: number; implicit unit µL/min/mg.

Noted for C[C@H]1CN(c2ccc(Cl)s2)C(=O)c2c(-c3ccc4nccn4c3)cnn21 [Example 7] : its microsomal CLint reads 2.15

Noted for C[C@H]1CN(c2ccc(C(F)(F)F)cn2)C(=O)c2c(-c3ccc4nccn4c3)cnn21 [Example 12] : its microsomal CLint reads 0.159

Noted for C[C@H]1CN(c2ccc3c(c2)OC(F)(F)O3)C(=O)c2c(-c3ccc4nccn4c3)cnn21 [Example 8] : its microsomal CLint reads 0.601

Noted for Cc1cc(N2C[C@H](C)n3ncc(-c4ccc5nccn5c4)c3C2=O)ccc1F [Example 17] : its microsomal CLint reads 1.94

----------
I'd be grateful if you could share measured CYP3A4 MBI for these entries.
# assayTarget: CYP3A4 (Homo sapiens (Human))
# procedureDetails: Assessment of MBI and enzyme inactivation clearance against CYP3A4 (human liver microsomes, midazolam or testosterone as substrate)
# Type: in vitro ADME
# recordedConditions: shift in IC50 values due to preincubation with NADPH, human liver microsomes; MBI potential when 2-fold or more; N.D. = Not Detected
// keep it numeric: no unit symbol after the value

Noted for `Cc1cc(N2C[C@H](C)n3ncc(-c4ccc5nccn5c4)c3C2=O)ccc1F` : its CYP3A4 MBI reads 3.2

Noted for `C[C@H]1CN(c2ccc3c(c2)OC(F)(F)O3)C(=O)c2c(-c3ccc4nccn4c3)cnn21` : its CYP3A4 MBI reads 2.2

Noted for `C[C@H]1CN(c2ccc(Cl)s2)C(=O)c2c(-c3ccc4nccn4c3)cnn21` : its CYP3A4 MBI reads 4.5

Noted for `C[C@H]1CN(c2ccc(C(F)(F)F)cn2)C(=O)c2c(-c3ccc4nccn4c3)cnn21` : its CYP3A4 MBI reads 2.2
